# subject.of.test: T1, SARS-CoV-2 S1 (subunit 1) protein (SARS-CoV-2, UniProt P0DTC2 16-685)
# T1 construct: also called biotinylated SARS-CoV-2 S1
# test.summary: phage ELISA
Measured screening ELISA (Avg), fold over background, listed per entry for reference.
quantity.kind: screening ELISA (Avg), fold over background

binder	result
SARS-CoV-2 variant 1-26 (antibody, V domains shown) VH: EVQLLESGGGLVQPGGSLRLSCAASGFTFSSYAISWVRQAPGKGLEWVSAISGSGYSTYYADSVKGRFTISRDNSKNTLYLQMNSLRAEDTAVYYCARGAPDSSGYYFQGEVYFDYWGQGTLVTVSS VL: QSALTQPASVSGSPGQSITISCTGTSSDVGGYNLVSWYQQHPGKAPKLMIYEGTKRPSGVSNRFSGSKSGNTASLTISGLQAEDEADYYCCSFVRSSAHVVFGGGTKLTVL	19.5 fold over background
SARS-CoV-2 variant 1-32 (antibody, V domains shown) VH: EVQLLESGGGLVQPGGSLRLSCAASGFTFSSYAMYWVRQAPGKGLEWVSAISGSGGSTFYADSVKGRFTISRDNSKNTLYLQMNSLRAEDTAVYYCTRPPYGDYGDYWGQGTLVTVSS VL: QSALTQPASVSGSPGQSITISCTGTSSDVGGYNLVSWYQQHPGKAPKLMIYEGNKRPSGVSNRFSGSKSGNTASLTISGLQAEDEADYYCCSYAGSSTFPVVFGGGTKLTVL	17.9 fold over background
SARS-CoV-2 variant 1-2 (antibody, V domains shown) VH: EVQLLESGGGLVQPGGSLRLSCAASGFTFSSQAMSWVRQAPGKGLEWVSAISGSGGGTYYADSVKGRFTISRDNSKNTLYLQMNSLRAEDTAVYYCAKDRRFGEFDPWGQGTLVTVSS VL: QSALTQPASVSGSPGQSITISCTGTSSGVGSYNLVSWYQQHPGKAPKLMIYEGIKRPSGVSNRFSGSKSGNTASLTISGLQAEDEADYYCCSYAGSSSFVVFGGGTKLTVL	24.2 fold over background
